Cited source for all entries: paper PMC9482650

Assignment: determine reported pKd for the given binders.
Target: MAST1, Q9Y2H9
Sequence (Q9Y2H9 962-1065): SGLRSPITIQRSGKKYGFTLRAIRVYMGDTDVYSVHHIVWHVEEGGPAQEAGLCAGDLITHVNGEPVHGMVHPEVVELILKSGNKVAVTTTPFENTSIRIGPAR
Assay: holdup assay
Parameters: key: below the threshold = too weak to quantify, mostly under pKd 3.1 to 4
Conditions: plain residues with an end cap or a label only (N-terminal biotin on a linker: ado-ado)
One number for each entry.

For every record below, what is its pKd?
1. EDPRVEVTQF [SLC22A9, Q8IVM8]
2. NVYGIESVKI [GRIA2, P42262]
3. EDGESWEYQI [TRPV6, Q9H1D0]
4. MQHQRTHTRV [ZSCAN30, Q86W11]

[out]
[4.75, 4.27, 4.28, 3.54]
